This collection of values is drawn from patent US20100280227A1.

We begin with a simple list: items and their reported pKd.
subject_of_test: T1, variant human BR3-Fc fusion
T1 construct: produced in CHO cells; also called vBR3-Fc; vhBR3-Fc
assay_procedure: SPR, vBR3-Fc on chip;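 also: Anti-BR3 antibodies passed over chip-bound BR3-Fc in PBS with 0.05% polysorbate 20, on and off rates fitted together globally to a 1:1 binding model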
Scale explanation: pKd corresponds to minus log10 of a concentration expressed in moles per litre.

Record excerpt, results attached:
[
  {
    "binder": "chimeric 2.1 IgG (antibody, V domains shown, also called Ch 2.1 IgG; ch 2.1) VH: EVQLQESGPSLVKPSQTLSLTCSVTGDSITRGYWNWIRKFPGNKLEFMGYINYSGTTYYNPSLKSRISITRDTSKNQYYLQLNSVTTEDTATYYCATPHTYGAMDYWGQGTTLTVSA VL: DIVLTQSPVSLAVSLGQRATISCRASESVDDYGISFMHWYQQKPGQPPKLLIYRASDLESGIPARFSGSGSGTDFTLTINPVETDDVAIYYCQQTSKDPWTFGGGT",
    "pKd": 10.40
  },
  {
    "binder": "Hu2.1-40L Fab (Fab, V domains shown, Fab) VH: EVQLVESGGGLVQPGGSLRLSCAASGDSITRGYWNWVRQAPGKGLEWVGYINYSGTTYYNPSLKSRFTISRDTSKNTLYLQMNSLRAEDTAVYYCATTLPYGAMDYWGQGTLVTVSS VL: DIQMTQSPSSLSASVGDRVTITCRASESVDDYGISFMHWYQQKPGKAPKLLIYRASDLESGVPSRFSGSGSGTDFTLTISSLQPEDFATYYCQQTSKDPWTFGQGTKVEIKR",
    "pKd": 8.46
  },
  {
    "binder": "chimeric 9.1 IgG (antibody, V domains shown, also called Ch 9.1 IgG; ch 9.1) VH: EVKLVESGGGLVQPGGSLRLSCAISGFTVTAYYMSWVRQPPGKALEWLGFIRDKANGYTTEYNPSVKGRFTISRDNSQSIFYLQMNTLRAEDSATYYCAQVRRALDYWGQGTTVTVSA VL: DIVMSQSPSSLAVSVGEKVTMSCKSSQSLLYSSNQNNYLAWYQQKPGQSPKLLIYWASTRESGVPDRFTGSGSGTDFTLTISSVKAEDLAVYYCQQYYTYPYTFGGGT",
    "pKd": 9.77
  },
  {
    "binder": "Hu9.1-88 Fab (Fab, V domains shown, Fab) VH: EVQLVESGGGLVQPGGSLRLSCAASGFPVTGSYVSWVRQAPGKGLEWVGFIRDKANGYTTEYNPSVKGRFTISRDTSKNTLYLQMNSLRAEDTAVYYCAQVRRALDYWGQGTLVTVSS VL: DIQMTQSPSSLSASVGDRVTITCKSSQSLLYSSNQNNYLAWYQQKPGKAPKLLIYWASTRESGVPSRFSGSGSGTDFTLTISSLQPEDFATYYCQQYYTYPYTFGQGTKVEIKR",
    "pKd": 8.86
  },
  {
    "binder": "murine monoclonal antibody 9.1 (antibody, V domains shown, mouse hybridoma IgG; also called 9.1 IgG; mu9.1) VH: EVKLVESGGGLVQPGGSLRLSCAISGFTVTAYYMSWVRQPPGKALEWLGFIRDKANGYTTEYNPSVKGRFTISRDNSQSIFYLQMNTLRAEDSATYYCAQVRRALDYWGQGTTVTVSA VL: DIVMSQSPSSLAVSVGEKVTMSCKSSQSLLYSSNQNNYLAWYQQKPGQSPKLLIYWASTRESGVPDRFTGSGSGTDFTLTISSVKAEDLAVYYCQQYYTYPYTFGGGT",
    "pKd": 9.21
  }
]

Lab note: next binder to report on.
Specify measured pKd for Hu11G9-36 IgG (antibody, V domains shown, humanized IgG) VH: EVQLVESGGGLVQPGGSLRLSCAASGDSINFGYWNWVRQAPGKGLEWVGYISYSGSTYYNPSLKSRFTISRDTSKNTFYLQMNSLRAEDTAVYYCAALNDLFLYFDVWGQGTLVTVSS VL: DIQMTQSPSSLSASVGDRVTITCRSSQSLVHSNGNTYLHWYQQKPGKAPKLLIYKVSNRFSGVPSRFSGSGSGTDFTLTISSLQPEDFATYYCSQSTHVPPFTFGQGTKVEIKR .
9.40
